Reference for the values: patent US7767646B2

- SYSTEM: UniProtKB Q96IY4
- Sequence (Q96IY4 115-423): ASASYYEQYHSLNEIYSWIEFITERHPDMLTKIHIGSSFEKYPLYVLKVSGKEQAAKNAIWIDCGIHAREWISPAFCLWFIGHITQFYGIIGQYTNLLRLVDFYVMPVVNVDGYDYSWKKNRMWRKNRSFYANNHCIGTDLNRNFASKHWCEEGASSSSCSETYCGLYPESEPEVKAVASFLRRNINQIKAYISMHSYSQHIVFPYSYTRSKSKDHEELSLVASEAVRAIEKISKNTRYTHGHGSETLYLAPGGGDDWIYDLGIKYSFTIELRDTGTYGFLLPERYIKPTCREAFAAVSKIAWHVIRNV
- PROCEDURE TEXT: ActiScreen TAFI HTS assay (TAFIa carboxypeptidase, hippuryl-L-lysine/LOX/HRP)
- Format: biochemical
- Design: made in house; host or cells: native human TAFI (not recombinant)
- CONDITION SET: no preincubation, assay as in Example 3
pIC50: −log10 of the molar value.
REPORTED PROPERTY: pIC50

NCCCNC(=O)OCCNC(=O)c1ccccc1O [L278R] :: 2.81
